# test_method_notes: Hygroscopicity test: weight gain of solid sample in humidity chamber at RH=80%
# Type: physicochemical
# reported_conditions: RH = 80%, 24 hrs
quantity_measured: Material appearance after 24 hrs at RH = 80%

molecule	reported_value
CCCCCCCC(=O)O.CCOC(=O)[C@@H](N)Cc1ccc(O)c(O)c1 [Example 19, LDEE Octanoate]	White flowable powder
CCOC(=O)[C@@H](N)Cc1ccc(O)c(O)c1.CCOC(=O)[C@@H](N)Cc1ccc(O)c(O)c1.O.O.O=C(O)/C=C/C(=O)O [Example 25, LDEE Fumarate Dihydrate]	White flowable powder

---

# test_method_notes: Hygroscopicity test: weight gain of solid sample in humidity chamber at RH=80%
# Assay type: physicochemical
# reported_conditions: RH = 80%
Mean water absorption rate at RH = 80% values for the compounds below.
Report the value in mol/kg/h with no unit label.

compound	Mean water absorption rate at RH = 80% (mol/kg/h)
CCO.CCOC(=O)[C@@H](N)Cc1ccc(O)c(O)c1.CCOC(=O)[C@@H](N)Cc1ccc(O)c(O)c1.O=C(O)CCC(=O)O [Example 22, LDEE Succinate Ethanolate]	0.067
CC(=O)O.CCOC(=O)[C@@H](N)Cc1ccc(O)c(O)c1 [Example 2, LDEE Acetate]	0.155
CCOC(=O)C(N)Cc1ccc(O)c(O)c1.O=C(O)C(O)c1ccccc1 (stereo not drawn) [Example 17, LDEE R(−)Mandelate]	0.125
CCOC(=O)[C@@H](N)Cc1ccc(O)c(O)c1.O=C(O)C(O)C(O)C(=O)O [Example 5, LDEE Hydrogen L(+)Tartrate]	0.23
CCOC(=O)[C@@H](N)Cc1ccc(O)c(O)c1.O=C(O)[C@@H](O)c1ccccc1 [Example 15, LDEE S(+)Mandelate]	0.092
CCOC(=O)[C@@H](N)Cc1ccc(O)c(O)c1.CCOC(=O)[C@@H](N)Cc1ccc(O)c(O)c1.O.O.O=C(O)CCC(=O)O [Example 23, LDEE Succinate Dihydrate]	0.006
CCOC(=O)[C@@H](N)Cc1ccc(O)c(O)c1.O=C(O)C(O)C(O)C(=O)O [Example 4, LDEE L(+)Tartrate]	0.164
CCOC(=O)C(N)Cc1ccc(O)c(O)c1.O=C(O)C(O)C(O)C(=O)O (mixture of isomers) [Example 7, LDEE (LD)Tartrate]	0.146

Ask: Mean water absorption rate at RH = 80% for CCOC(=O)[C@@H](N)Cc1ccc(O)c(O)c1.O=P(O)(O)O [Example 11, LDEE Phosphate] ?
Result: 0.147

Ask: Lookup CCCCCCCC(=O)O.CCOC(=O)[C@@H](N)Cc1ccc(O)c(O)c1 [Example 19, LDEE Octanoate]
Result: 0.005

The reported measurements were obtained from patent US6696600B2.
